study-target: T1, human SLC34A2 (human, UniProt O95436 1-690)
T1 construct: whole, on cells; also called human solute carrier 34 A2; NaPi2b
T1 sequence (looked up): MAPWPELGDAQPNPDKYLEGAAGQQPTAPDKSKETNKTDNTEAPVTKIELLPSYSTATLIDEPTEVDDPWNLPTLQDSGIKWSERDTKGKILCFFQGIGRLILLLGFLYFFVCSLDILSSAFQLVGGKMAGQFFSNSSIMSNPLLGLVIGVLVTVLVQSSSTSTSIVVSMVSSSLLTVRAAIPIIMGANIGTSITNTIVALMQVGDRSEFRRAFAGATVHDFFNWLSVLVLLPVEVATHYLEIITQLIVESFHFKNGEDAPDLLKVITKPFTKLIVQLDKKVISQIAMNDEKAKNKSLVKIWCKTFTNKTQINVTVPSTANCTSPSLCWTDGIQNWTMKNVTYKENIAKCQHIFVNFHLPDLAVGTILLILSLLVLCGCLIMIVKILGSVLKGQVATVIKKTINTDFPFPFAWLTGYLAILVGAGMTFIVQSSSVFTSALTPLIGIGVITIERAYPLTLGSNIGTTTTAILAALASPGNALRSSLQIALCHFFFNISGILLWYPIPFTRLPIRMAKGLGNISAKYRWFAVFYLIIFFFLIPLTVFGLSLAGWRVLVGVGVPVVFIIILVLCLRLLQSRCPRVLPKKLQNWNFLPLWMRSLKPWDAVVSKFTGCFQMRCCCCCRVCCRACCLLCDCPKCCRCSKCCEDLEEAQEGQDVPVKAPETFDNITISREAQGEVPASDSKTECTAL
test-description: FACS, OVCAR3 cells
reported-endpoint: EC50 (nM)
Report only the number, with the unit nM understood.

Entry under review: 62G10E4G8.p3.z6 hIgG1 (antibody, V domains shown, humanized hIgG1) VH: QVQLVQSGAEVKKPGASVKVSCKASGYTFPSYITHWVRQAPGQGLEWIGAIYPGNADTSYIQKFKGRVTMTADKSTSTVYMELSSLRSEDTAVYYCARGTYGTSAWFTYWGQGTLVTVSS VL: EIVMTQSPATLSVSPGERATLSCRARQNIGNNLYWYQQKPGQSPRLLIKYASQSISGIPARFSGSGSGTEFTLTISSLQSEDFAVYFCQQSFSWPLTFGQGTKLEIK . Reported EC50? 8.06

Entry under review: 30H9B8F9.p1.z11 hIgG1 (antibody, V domains shown, humanized hIgG1) VH: QVQLVQSGAEVVKPGASVKVSCKTSGYTFTTNNMHWVRQAPGQGLEWIGAIYPGSGATAYNQKFKGRVTLTADKSTSTAYMELSSLRSEATAVYYCARGMYGHGAMDYWGQGTLVTVSS VL: DIQMTQSPSFLSASVGDRVTITCKASQDVGTAVAWYQQKPGKSPKLLIYWATTRHSGVPDRFSGSGSGTEFIFTISSVQPEDFATYFCQQYSSNPLTFGAGTKLEIK . Reported EC50? 1.43

Entry under review: 62G10E4G8.p3.z4 hIgG1 (antibody, V domains shown, humanized hIgG1) VH: QVQLVQSGAEVKKPGASVKVSCKASGYTFPSYITHWVRQAPGQGLEWMGAIYPGNADTSYIQKFKGRVTMTRDTSTSTVYMELSSLRSEDTAVYYCARGTYGTSAWFTYWGQGTLVTVSS VL: EIVLTQSPATLSASPGERATLSCRARQNIGNNLYWYQQKPGQSPRLLIKYASQSISGIPSRFSGSGSGTDFTLTISSVQSEDFAVYFCQQSFSWPLTFGAGTKLEIK . Reported EC50? 16.3
